Tested on: TNFα
runDescription: cells
Format: cell-based, human
testParameters: Homo sapiens, Monocyte, LPS-stimulated human monocytes, TNFα content; read-out: EC50 TNF
measurementKind: pEC50
One number for each entry, as −log10 of the molar value.

{"smi": "Cc1ncoc1[C@H]1CC[C@H](Nc2cc(-c3ccc4cc(C#N)cnn34)ncc2C(=O)NC[C@@H](F)C(C)(C)O)CC1", "value": 7.68}
{"smi": "Cc1nnc(Nc2cc(-c3ccc4cc(C#N)cnn34)ncc2C(=O)NC[C@@H](F)C(C)(C)O)s1", "value": 6.93}
{"smi": "N#Cc1cnn2c(-c3cc(NC45CCC(O)(CC4)CC5)c(C(=O)NCC4COC4)cn3)ccc2c1", "value": 6.84}
{"smi": "COC(=O)N1CC[C@H](Nc2cc(-c3ccc4cc(C#N)cnn34)ncc2C(=O)NC[C@@H](F)C(C)(C)O)C1", "value": 6.48}

Provide pEC50 for all items below, preserving their order.
1. CC(C)(O)[C@H](F)CNC(=O)c1cnc(-c2ccc3cc(C#N)cnn23)cc1Nc1ccc(C(F)F)nc1
2. CNC(=O)c1cnc(-c2ccc3cc(C#N)cnn23)cc1N[C@H]1CCC[C@@H](C(=O)NC)C1
3. CNC(=O)c1cnc(-c2ccc3cc(C#N)cnn23)cc1N[C@H]1CCC[C@@H](O)C1
4. CC(C)Nc1cc(-c2ccc3cc(C#N)cnn23)ncc1C(=O)N[C@H]1CC[C@H](N)CC1
5. CC(C)(O)[C@H](F)CNC(=O)c1cnc(-c2ccc3cc(C#N)cnn23)cc1NC1CCOCC1

Reply |
[7.51, 6.36, 7.01, 7.01, 7.46]

Provide pEC50 for all items below, preserving their order.
1. CC(C)(O)[C@H](F)CNC(=O)c1cnc(-c2ccc3cc(C#N)cnn23)cc1N[C@@H]1[C@@H]2COC[C@@H]21
2. Cc1cc(Nc2cc(-c3ccc4cc(C#N)cnn34)ncc2C(=O)NC[C@@H](F)C(C)(C)O)ncc1C(N)=O

Reply |
1: 6.69; 2: 6.41

Provide pEC50 for all items below, preserving their order.
1. CC(C)(O)[C@H](F)CNC(=O)c1cnc(-c2ccc3cc(C#N)cnn23)cc1N[C@H]1C[C@H](S(C)(=O)=O)C1
2. CC(C)(O)[C@H](F)CNC(=O)c1cnc(-c2ccc3cc(C#N)cnn23)cc1N[C@H]1CCC[C@@H](N2CCOCC2)C1
3. CC(C)(O)[C@H](F)CNC(=O)c1cnc(-c2ccc3cc(C#N)cnn23)cc1NC12CCC(NC(=O)C(F)(F)F)(CC1)CC2

Reply |
6.96
7.01
7.42

----------
For each record, write down the corresponding pIC50.
testedSystem: IRAK4 enzyme (Homo sapiens (Human))
Sequence (Q9NWZ3 whole entry): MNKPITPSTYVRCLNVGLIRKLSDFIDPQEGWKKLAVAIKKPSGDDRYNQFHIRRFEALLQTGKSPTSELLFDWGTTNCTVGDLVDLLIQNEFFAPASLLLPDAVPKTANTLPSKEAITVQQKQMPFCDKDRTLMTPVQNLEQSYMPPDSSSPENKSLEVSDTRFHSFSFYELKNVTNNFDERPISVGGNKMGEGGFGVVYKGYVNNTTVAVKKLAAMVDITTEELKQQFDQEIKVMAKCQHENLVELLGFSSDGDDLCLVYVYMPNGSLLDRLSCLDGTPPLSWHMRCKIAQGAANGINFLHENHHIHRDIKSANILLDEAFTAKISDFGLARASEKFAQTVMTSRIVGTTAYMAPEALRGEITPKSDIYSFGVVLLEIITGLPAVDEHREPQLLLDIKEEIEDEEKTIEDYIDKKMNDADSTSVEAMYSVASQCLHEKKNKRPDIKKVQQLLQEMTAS
runDescription: biochemical
Type: biochemical
testParameters: IRAK4 enzyme, TR-FRET (HTRF), 500 μM ATP
One number for each entry, as −log10 of the molar value.

{"molecule": "COC(=O)NC(C)(CCNC(=O)c1cnc(-c2ccc3cc(C#N)cnn23)cc1NC(C)C)C(F)F (stereo not shown)", "pIC50": 8.70}
{"molecule": "CC(C)Nc1cc(-c2ccc3cc(C#N)cnn23)ncc1C(=O)NCCC(C)(N)C(F)(F)F (stereo not shown)", "pIC50": 9.00}
{"molecule": "CC(C)(O)[C@H](F)CNC(=O)c1cnc(-c2ccc3cc(C#N)cnn23)cc1N[C@H]1C[C@H](CN2CCOCC2)C1", "pIC50": 8.40}

Ask | IRAK4 enzyme (Homo sapiens (Human)) / pIC50 / N#Cc1cnn2c(-c3cc(N[C@H]4CCC[C@@H](O)C4)c(C(=O)NC4CC4(F)F)cn3)ccc2c1 (stereo partly shown) : value?
Reply | 7.85

Cited source for all entries: patent US10336762B2
